# Tested on: Vero
# protocol_details: Cytotoxicity against african green monkey Vero cells after 72 hrs by MTT assay
# Type: cell-based
# measurement_setup: Chlorocebus sabaeus
So I've got a bunch of compounds here, and I need their log10 IC50 values.
Each number you see is log10 of IC50, and the unit inside the log is µg/mL.

Use the examples below as a reference point.
1. COc1ccc2c(N/N=C/c3ccc4ccccc4n3)cc(C)nc2c1 | -0.92
2. COc1ccc2nccc(N/N=C/C3CCCCC3)c2c1 | 0.70
3. COc1ccc2c(N/N=C/c3ccc4ccccc4c3)ccnc2c1 | -0.34
4. COc1cccc2c(N/N=C/c3ccc4ccccc4n3)cc(C)nc12 | 0.49
5. COc1ccc2c(N/N=C/c3ccc(N(C)C)cc3)ccnc2c1 | -0.59

Q) Name the recorded log10 IC50 for COc1ccc2c(N/N=C/c3cccc(O)c3)ccnc2c1 .
A) 0.04
